Assay: Probe fluorescence ratio response to arachidonic acid relative to ADIFAB2
Type: binding
Details: arachidonic acid; response relative to ADIFAB2
DR/DR AA vs 1: less than gives class 1; not less than gives class 0.

As a guide, the following entries are already answered.
Molecule	Cat
60L, 72A (protein, listed as Rattus norvegicus, PEPTIDE (1)...(131) wild-type rat intestinal fatty acid binding protein) AFDGTWKVDRNENYEKFMEKMGINVVKRKLGAHDNLKLTITQEGNKFTVKESSNFRNIDLVFELGVDFAYSAADGTELTGTWTMEGNKLVGKFKRVDNGKELIAVREISGNELIQTYTYEGVEAKRIFKKE	class 0
18L 55L 73I 72A (protein, listed as Rattus norvegicus, PEPTIDE (1)...(131) wild-type rat intestinal fatty acid binding protein) AFDGTWKVDRNENYEKFLEKMGINVVKRKLGAHDNLKLTITQEGNKFTVKESSNLRNIDVVFELGVDFAYSAIDGTELTGTWTMEGNKLVGKFKRVDNGKELIAVREISGNELIQTYTYEGVEAKRIFKKE	class 1
23Y, 72A (protein, listed as Rattus norvegicus, PEPTIDE (1)...(131) wild-type rat intestinal fatty acid binding protein) AFDGTWKVDRNENYEKFMEKMGYNVVKRKLGAHDNLKLTITQEGNKFTVKESSNFRNIDVVFELGVDFAYSAADGTELTGTWTMEGNKLVGKFKRVDNGKELIAVREISGNELIQTYTYEGVEAKRIFKKE	class 1
14W, 72A (protein, listed as Rattus norvegicus, PEPTIDE (1)...(131) wild-type rat intestinal fatty acid binding protein) AFDGTWKVDRNENWEKFMEKMGINVVKRKLGAHDNLKLTITQEGNKFTVKESSNFRNIDVVFELGVDFAYSAADGTELTGTWTMEGNKLVGKFKRVDNGKELIAVREISGNELIQTYTYEGVEAKRIFKKE	class 1

Input 55I, 72A (protein, listed as Rattus norvegicus, PEPTIDE (1)...(131) wild-type rat intestinal fatty acid binding protein) AFDGTWKVDRNENYEKFMEKMGINVVKRKLGAHDNLKLTITQEGNKFTVKESSNIRNIDVVFELGVDFAYSAADGTELTGTWTMEGNKLVGKFKRVDNGKELIAVREISGNELIQTYTYEGVEAKRIFKKE ; condition: DR/DR AA strictly below 1. Does it hold?
class 0

Strictly below 1 in DR/DR AA? 72A 73W 74S (protein, listed as Rattus norvegicus, PEPTIDE (1)...(131) wild-type rat intestinal fatty acid binding protein) AFDGTWKVDRNENYEKFMEKMGINVVKRKLGAHDNLKLTITQEGNKFTVKESSNFRNIDVVFELGVDFAYSAWSGTELTGTWTMEGNKLVGKFKRVDNGKELIAVREISGNELIQTYTYEGVEAKRIFKKE
class 0

Strictly below 1 in DR/DR AA? 72S 73V 74A (protein, listed as Rattus norvegicus, PEPTIDE (1)...(131) wild-type rat intestinal fatty acid binding protein) AFDGTWKVDRNENYEKFMEKMGINVVKRKLGAHDNLKLTITQEGNKFTVKESSNFRNIDVVFELGVDFAYSSVAGTELTGTWTMEGNKLVGKFKRVDNGKELIAVREISGNELIQTYTYEGVEAKRIFKKE
class 0

Origin of the recorded values: patent US20060257938A1
